Target: gastrin receptor (Rattus norvegicus, UniProt P30553)
Construct: The stomach was excised and flushed with ca. 1 ml of unbuffered physiological saline solution; from tissue; host or cells: isolated whole stomach of immature rats (ca. 21 days old)
Sequence (P30553 whole entry): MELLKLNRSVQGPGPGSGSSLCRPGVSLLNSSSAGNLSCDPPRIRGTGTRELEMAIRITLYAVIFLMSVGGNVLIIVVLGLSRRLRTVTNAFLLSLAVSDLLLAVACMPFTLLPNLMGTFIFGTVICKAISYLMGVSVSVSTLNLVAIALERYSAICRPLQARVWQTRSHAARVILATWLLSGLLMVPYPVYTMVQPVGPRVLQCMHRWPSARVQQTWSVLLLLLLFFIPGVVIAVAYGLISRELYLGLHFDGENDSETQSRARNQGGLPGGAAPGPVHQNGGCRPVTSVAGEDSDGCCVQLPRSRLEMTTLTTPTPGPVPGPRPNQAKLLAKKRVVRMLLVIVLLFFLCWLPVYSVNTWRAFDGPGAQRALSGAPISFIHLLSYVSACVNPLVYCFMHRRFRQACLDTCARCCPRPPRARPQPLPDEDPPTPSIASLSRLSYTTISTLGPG
Assay: gastrin antagonist activity in immature rat stomach assay (pentagastrin dose-response, acid secretion)
Details: isolated immature rat stomach, cumulative pentagastrin dose-response curves, read-out: Gastrin pKb (converted)
Protocol: The compounds of the examples were also tested for gastrin antagonist activity in an immature rat stomach assay. The procedure was as follows: […] After 120 min of stabilisation the drugs were added directly to the serosal solution in the organ bath and after a further 60 min cumulative pentagastrin dose-response curves were started. Changes in acid secretion were monitored and the curves analysed according to Black et al., Br. J. Pharmacol., 1985, 86, 581.
Structures can show the parent of a compound that is named as a salt.
So I've got a bunch of compounds here, and I need their Kb values.
Return type: number; implicit unit nM.

Using the record for Cc1cc(C)c(-c2nc(COC34CC5CC(CC(C5)C3)C4)c(C(=O)Nc3cccc(C(=O)O)c3)n2O)c(C)c1 [Example 312] , state its measured Kb.
34.7

State, in one line, measured Kb of Cc1ccc(NC(=O)c2nc(C3CC4CCC3C4)[nH]c2CCC23CC4CC(CC(C4)C2)C3)cc1C(=O)O (racemic) [Example 209]
1.1

Respond only with Kb recorded for Cc1ccc(NC(=O)c2nc(C3CCCCC3)[nH]c2CCC23CC4CC(CC(C4)C2)C3)cc1C(=O)O [Example 135]
22.4

Tell me Kb reported for O=C(O)c1cccc(NC(=O)c2sc(C3CCCCC3)nc2CCC23CC4CC(CC(C4)C2)C3)c1 [Example 122]
3020

Recall and state the measured Kb for CC1(c2nc(C(=O)Nc3cccc(C(=O)O)c3)c(CCC34CC5CC(CC(C5)C3)C4)[nH]2)CCCCC1 [Example 199] .
1.62

Supply reported Kb belonging to this compound: Cc1cc(C)c(-c2nc(C(=O)Nc3ccc(C)c(C(=O)O)c3)c(CCC34CC5CC(CC(C5)C3)C4)[nH]2)c(C)n1 [Example 183]
42.7

Give the value of Kb reported for the following: O=C(O)CCc1cccc(NC(=O)c2nc(C3CCCCC3)[nH]c2CCC23CC4CC(CC(C4)C2)C3)c1 [Example 258, Trifluoroacetic Acid Salt]
204

* * *

Biological target: gastrin receptor (Rattus norvegicus)
Construct: The stomach was excised and flushed with ca. 1 ml of unbuffered physiological saline solution; from tissue; host or cells: isolated whole stomach of immature rats (ca. 21 days old)
Experiment: gastrin antagonist activity in immature rat stomach assay (pentagastrin dose-response, acid secretion)
Details: isolated immature rat stomach, cumulative pentagastrin dose-response curves, read-out: Gastrin pKb (converted)
Please respond with reported Kb for every item in the list.
Record the value in nM, omitting the unit from your answer.

# return recorded Kb for entry O=C(O)c1cc(NC(=O)c2nc(C34CCC(CC3)CC4)[nH]c2COC23CC4CC(CC(C4)C2)C3)ccc1F [Example 223]
0.776

Quick one: give measured Kb for O=C(O)Cc1cccc(NC(=O)c2nc(C34CCC(CC3)CC4)[nH]c2COC23CC4CC(CC(C4)C2)C3)c1 [Example 224]
18.2

Read off the recorded Kb for Cc1ccccc1-c1nc(C(=O)Nc2cccc(C(=O)O)c2)c(CCC23CC4CC(CC(C4)C2)C3)[nH]1 [Example 57]
58.9

Given the molecule O=C(O)c1cccc(NC(=O)c2nc(C3C4CCCC3CCC4)[nH]c2CCC23CC4CC(CC(C4)C2)C3)c1 (stereo not shown) [Example 208] , write its reported Kb.
3.47

Identify Kb associated with the molecule Cc1ccc(NC(=O)c2nc(-c3ccccc3C)n(C)c2CCC23CC4CC(CC(C4)C2)C3)cc1C(=O)O [Example 161]
81.3

For the molecule Cc1ccccc1-c1nc(C(=O)NCC(=O)Nc2cccc(C(=O)O)c2)c(CCC23CC4CC(CC(C4)C2)C3)[nH]1 [Example 103] , report Kb.
661

Identify measured Kb associated with Cc1ccc(NC(=O)c2nc(C3CCCCC3)[nH]c2CCC2C3CC4CC(C3)CC2C4)cc1C(=O)O (stereo not shown) [Example 173]
4.79

All values here come from patent US6479531B1.
